# System: CCD-18Co
# Test: Cell-based assay, anti-proliferative activity (Cell Counting Kit-8, 72 hours)
# Assay Setup: Homo sapiens; CCD-18Co cells, Cell Counting Kit-8, 72 hours; read-out: IC50 (μM) CCD-18Co
Parameter: log10 IC50 (log10 of the value in µM)
Please be aware that the numbers have been log10-transformed from IC50 in µM.

The examples below pair each entry with its known result.
Compound: COc1cc(OC)c(-c2cn3ccc(N4CCC(NC(=O)CCNC(=O)OC(C)(C)C)C4)nc3n2)cc1Br (stereo not drawn) [Example 65]
Readout Number: 1.41
//
Compound: COc1cc(OCCCN(C)C)c(-c2cn3ccc(N4CCCNCC4)cc3n2)cc1Cl [Example 209]
Readout Number: 0.51
//
Compound: COc1cc(OC)c(-c2cn3ccc(N4CCN(CCC(N)=O)CC4)cc3n2)cc1Cl [Example 137]
Readout Number: 1.15
//
Compound: COc1cc(OC)c(-c2cn3cc(NCCN)ccc3n2)cc1Cl [Example 81]
Readout Number: 1.04
//
Compound: COc1cc(OCC2CC2)c(-c2cn3ccc(N4CCCC4)cc3n2)cc1Cl [Example 82]
Readout Number: 0.58

Below: the item to evaluate.
Item COc1cc(OC)c(-c2cn3ccc(N4CCC(NS(=O)(=O)C(F)(F)F)CC4)cc3n2)cc1Cl [Example 176] : provide log10 IC50
-0.28

----------
# Test system: CCD-18Co
# Test: Cell-based assay, anti-proliferative activity (Cell Counting Kit-8, 72 hours)
# Assay Setup: Homo sapiens; CCD-18Co cells, Cell Counting Kit-8, 72 hours; read-out: IC50 (μM) CCD-18Co
# Protocol: Active candidate inhibitors against SUV39H2 were evaluated for their target-specific cytotoxicity using A549, HCT-116, HFL1, CCD-18Co and PC14. 100 micro-L of cell suspension was seeded onto 96-well microtiter plate (ViewPlate-96FTC, PerkinElmer). […] Cellular growth was determined using Cell Counting Kit-8 (DOJINDO) at 72 hours after the exposure of the candidate inhibitors. […] Accurate IC50 values were calculated as described previously.
Where a name gives a salt, the structure may show the parent alone.
Consider the cut-off 3 µM. If the recorded IC50 is strictly smaller, the label is Y; if not, the label is N.

These solved cases illustrate the format of a correct answer.
Compound: COc1cc(OC)c(-c2cn3ccc(N4CCC(NC(=O)OC(C)(C)C)C4)cc3n2)cc1C#N (stereo not drawn)
Experimental System: CCD-18Co
Group: N
//
Compound: COc1cc(OC)c(-c2cn3ccc(N4CCC(NC(=O)OC(C)(C)C)C4)nc3n2)cc1Br (stereo not drawn)
Experimental System: CCD-18Co
Group: N
//
Compound: COc1cc(OC)c(-c2cn3ccc(N4CC[C@H](NC(=O)OC(C)(C)C)C4)cc3n2)cc1Cl
Experimental System: CCD-18Co
Group: Y
//
Compound: COc1cc(OC)c(-c2cn3ccc(N4CCC(NC(C)=O)CC4)cc3n2)cc1Cl
Experimental System: CCD-18Co
Group: N
//
Compound: COc1cc(OC)c(-c2cn3ccc(N4CCN(S(=O)(=O)C(C)C)CC4)cc3n2)cc1Cl
Experimental System: CCD-18Co
Group: Y

Note: attention shifts to another entry.
# check: IC50 < 3 µM for COc1cc(OC)c(-c2cn3ccc(N4CCOCC4)cc3n2)cc1Cl [Example 12, hydrobromide]
N
